experimentDescription: passive permeability, PAMPA, ADME assay (AID 1508612)
statedConditions: pH 7.4, 30.0 min, 50.0 µM
propertyName: Papp
Give the value; after it, write the unit.

Check out these entries, answers already filled in.
Cc1cc(NS(=O)(=O)c2ccc(N(C)C(=O)Cc3ccc(Cl)c(Cl)c3)cc2)no1 :: 48.1 ×10⁻⁶ cm/s
CC(=O)N1CCc2c(sc3c2c(=O)n(-c2ccccc2)c(=O)n3CC(=O)c2ccccc2)C1 :: 714 ×10⁻⁶ cm/s
CC[C@H](C)[C@@H]([C@@H](CC(=O)N1CCC[C@H]1[C@H](OC)[C@@H](C)C(=O)N[C@@H](Cc1ccccc1)c1nccs1)OC)N(C)C(=O)[C@@H](NC(=O)[C@H](C(C)C)N(C)C)C(C)C :: 341 ×10⁻⁶ cm/s

Now take the following molecule into account.
# query: Papp of entry "Cc1ccc(-c2nnc(N3CCC(C(N)=O)CC3)s2)cc1"
246 ×10⁻⁶ cm/s

====

# reported Papp; entries follow
experimentDescription: passive permeability, PAMPA, ADME assay (AID 1508612)
statedConditions: pH 7.4, 30.0 min, 50.0 µM
Numeric only. Scale: ×10⁻⁶ cm/s

COc1ccc(CCNC(=O)c2cc3c(=O)n4ccccc4nc3n(CCCN3CCOCC3)c2=N)cc1 :: 394
O=C(NCC1(c2nc(-c3ccccc3)cs2)CCOCC1)c1cccc(-c2noc(C(F)(F)F)n2)c1 :: 665
CC(C)(C)c1ccc(-n2cnc3cc(C(=O)N4CCCCC4)ccc32)cc1 :: 969
Cc1cnc(N2CCC(C(N)=O)CC2)nc1-c1cccc(N(C)C)c1 :: 666
Cc1ccc(S(=O)(=O)Nc2ccccc2C(=O)Nc2ncc(-c3ccccc3)s2)cc1 :: 125

# query: Papp of entry "COc1cccc(CN(C)c2ccc([S+](=O)([O-])Nc3nccs3)cc2)c1O"
868

Same read-out for "O=C(CSc1ccccc1)Nc1nnc(COc2ccc(Cl)cc2)s1" ?
498

Same read-out for "CCOC(=O)c1ccc(NC(=O)N2Cc3[nH]cnc3C[C@H]2c2nc(C(C)C)no2)cc1" ?
113

Same read-out for "O=C(NCc1ccncc1)c1nc(-c2cccnc2)c2cnccn12" ?
6.35

Same read-out for "COc1cccc(CNC(=O)c2c(OC)cc(=O)n3c2CCN(C(=O)c2ccc(C)cc2C)CC3)c1" ?
93.9

Same read-out for "COc1ccc(-c2ccc(Nc3nc(-c4ccncc4)nc4ccccc34)cc2F)cc1F" ?
39.9

Same read-out for "NC(=O)C1CCN(c2nc(-c3ccc(N4CCCCC4)nc3)cs2)CC1" ?
23.9

====

experimentDescription: passive permeability, PAMPA, ADME assay (AID 1508612)
statedConditions: pH 7.4, 30.0 min, 50.0 µM
Param threshold (30 ×10⁻⁶ cm/s) applies to Papp; output MET when value >= threshold, NOT MET when value < threshold.

Illustrative cases are given below, each with its answer.
CC(=O)N1CCc2c(sc3c2c(=O)n(-c2ccccc2)c(=O)n3Cc2cccc(C(F)(F)F)c2)C1 :: MET
O=C1Nc2ccccc2/C1=C\c1ccc(C(=O)O)cc1 :: NOT MET
Cc1ccc(CNc2ccccc2C(=O)Nc2nc(-c3ccccc3)cs2)cc1 :: NOT MET
CCOC(=O)C1CCN(C(=O)C2(NC(=O)Nc3ccccc3Cl)CCC2)CC1 :: MET
CC(C)Oc1ccc(-c2ccc(=O)n(CC(=O)NCCc3ccccc3)n2)cc1 :: MET
Cc1ccc(-c2ccnc(N3CCC(C(N)=O)CC3)n2)cc1 :: MET

Reported Papp at or above 30 ×10⁻⁶ cm/s? "COc1ccccc1C(=O)Nc1ccccc1C(=O)Nc1cccc(S(=O)(=O)C(F)(F)F)c1"
NOT MET

====

experimentDescription: passive permeability, PAMPA, ADME assay (AID 1508612)
statedConditions: pH 7.4, 30.0 min, 50.0 µM
# reported Papp; entries follow
Numeric only. Scale: ×10⁻⁶ cm/s

Check out these entries, answers already filled in.
CCCCOc1ccc(CC(=O)NO)cc1 :: 133
COc1ccc(-c2cc3nccn3c(Nc3ncccc3C(N)=O)n2)cc1OC :: 26.4
c1ccc(Nc2nc(NCc3ccco3)c3ccccc3n2)cc1 :: 930

# query: Papp of entry Fc1ccc(N2CCCN(CC3[C@H]4CNC[C@@H]34)CC2)cc1 (stereo partly specified)
196

====

experimentDescription: passive permeability, PAMPA, ADME assay (AID 1508612)
statedConditions: pH 7.4, 30.0 min, 50.0 µM
Rule: Papp below 100 ×10⁻⁶ cm/s gives met, anything at or above gives not met.

Illustrative cases are given below, each with its answer.
O=C(c1nc(-c2ccc(Cl)nc2)c2ccccn12)N1CCCC1 :: not met
C#CC1(O)CCC2C3CCC4=C/C(=N/OCC(=O)NCC(=O)NC(C(=O)O)C(C)C)CC[C@]4(C)C3CC[C@@]21C (stereo partly specified) :: met
CNc1ncc(-c2cccc3ccccc23)o1 :: not met
Cc1csc2c1c(=O)n(O)c(=O)n2Cc1ccccc1 :: not met

Is 100 ×10⁻⁶ cm/s strictly greater than the molecule's reported Papp? molecule: "N#CC1CCN(c2nc(-c3ccc(Br)cc3)cs2)CC1"
not met

Same read-out for "COc1cc([C@@H]2c3cc4c(cc3[C@H](O)[C@H]3COC(=O)[C@H]23)OCO4)cc(OC)c1OC" ?
not met

Same read-out for "Cc1ccc(S(=O)(=O)Nc2ccccc2C(=O)Nc2cnc(-c3ccccc3)cn2)cc1" ?
not met

Same read-out for "NC(=O)C1CCN(c2nccc(Cl)n2)CC1" ?
met

Same read-out for "O=C(Nc1nc(-c2ccccc2)cs1)c1ccncc1NS(=O)(=O)c1ccc(C(F)(F)F)cc1" ?
not met

====

experimentDescription: passive permeability, PAMPA, ADME assay (AID 1508612)
statedConditions: pH 7.4, 30.0 min, 50.0 µM
# reported Papp; entries follow
Numeric only. Scale: ×10⁻⁶ cm/s

Check out these entries, answers already filled in.
CO[C@@H]1/C=C\O[C@@]2(C)Oc3c(C)c(O)c4c(c3C2=O)C(=N[C@H]2CC[C@H](O)O[C@@H]2C)C=C(NC(=O)/C(C)=C\C(=O)[C@@H]2C[C@@H]2[C@@H](O)[C@H](C)[C@@H](O)[C@H](C)[C@H](OC(C)=O)[C@@H]1C)C4=O :: 2.33
O=C1CCCC2=C1C(c1[nH]ncc1Cl)N=C(Nc1nc3cc(F)ccc3o1)N2 (centres undefined) :: 647
Cc1cc(C)c(C(=O)Nc2cccc([S+](=O)([O-])N3CCCCCC3)c2)[nH]1 :: 990
Cn1cc(Cl)c(C2N=C(Nc3nc4ccccc4o3)NC3=C2C(=O)CCC3)n1 (centres undefined) :: 633
NC(=O)C1CCN(c2ncc(-c3ccc4c(c3)OC(F)(F)O4)s2)CC1 :: 438

# query: Papp of entry "O=c1cc(-c2ccccc2)oc2cc(O)cc(O)c12"
452

Same read-out for "CCCN1CNc2c(c(=O)[nH]c(=S)n2Cc2ccc(OC)c(OC)c2)C1" ?
55

Same read-out for "Cc1ccc(S(=O)(=O)Nc2cnccc2C(=O)Nc2ccc(-c3nn[nH]n3)cc2)cc1" ?
1.4

Same read-out for "CC(C)N(CCCNC(=O)Nc1ccc(C(C)(C)C)cc1)C[C@H]1O[C@@H](n2cc(Br)c3c(N)ncnc32)[C@H](O)[C@H]1O" ?
472

Same read-out for "C[C@H]1CN(C(=O)c2nn(C)c3ccccc23)C[C@@H]1c1nc(-c2ccncc2)no1" ?
907

Same read-out for "O=S(=O)(Nc1nccs1)c1ccc(NCc2cc(Cl)ccc2O)cc1" ?
10.8

Same read-out for "CCN(CC)S(=O)(=O)c1ccc(N2CCCC2)c(NS(=O)(=O)c2ccc(C)cc2)c1" ?
253

Same read-out for "O=C(Nc1ccc(S(=O)(=O)Nc2nccs2)cc1)c1cccc2ccccc12" ?
11.9

Same read-out for O=C1Nc2ccccc2C12CC2c1cc(Cl)c(O)c(Cl)c1 (centres undefined) ?
278

Same read-out for "CCCCOc1ccc(C(=O)N2CCC(c3n[nH]c(=O)n3-c3ccc(C)cc3)CC2)cc1" ?
892

====

# reported Papp; entries follow
experimentDescription: passive permeability, PAMPA, ADME assay (AID 1508612)
statedConditions: pH 7.4, 30.0 min, 50.0 µM
Numeric only. Scale: ×10⁻⁶ cm/s

Cc1ncc2c(c1CNC(=O)Cn1cnc3ccccc3c1=O)CCNC2 :: 59.6

Now take the following compound into account.
# query: Papp of entry "COc1ccc(NC(=O)c2[nH]c(C)c(C(C)=O)c2C)cc1S(=O)(=O)Nc1ccc(C#N)cc1"
35.7

====

experimentDescription: passive permeability, PAMPA, ADME assay (AID 1508612)
statedConditions: pH 7.4, 30.0 min, 50.0 µM
propertyName: Papp (×10⁻⁶ cm/s)
Numeric only. Scale: ×10⁻⁶ cm/s

CCOc1ccc(CCNC(=O)c2cc3ccncc3n2Cc2cccc(C)n2)cc1OCC :: 3.77
COc1cc([C@@H](CC(=O)O)c2ccc(C)c(CN3C[C@@H](C)Oc4ccccc4S3(=O)=O)c2)cc2nnn(C)c12 :: 2.9

Now take the following compound into account.
# query: Papp of entry CNc1nc2c(s1)C(c1ccc(Cl)cc1)CC(=O)N2 (stereo not given)
308
